Molecular target: Thioredoxin reductase 1, cytoplasmic (Rattus norvegicus)
Test: qHTS Assay for Inhibitors of Mammalian Selenoprotein Thioredoxin Reductase 1 (TrxR1) (AID 488773); also: nearly all actives have a fitted effect of over 40% in size
Conditions: purified TrxR1 enzyme activity; inhibition; series mostly up to 57.1 µM
From the text: The selenoprotein thioredoxin reductase (TrxR; EC 1.8.1.9) is a FAD containing homodimeric pyridine nucleotide-disulfide oxidoreductase with many cellular roles. Together with NADPH and its prime substrate thioredoxin (Trx), the enzyme forms the core of the Trx system. […] This BioAssay is a validation of an NADPH fluorescence-based, dual-purpose qHTS rTrxR1 assay designed to find potential inhibitors and substrates of rTrxR1. […]
Inconclusive results are not listed. The source made the active and inactive calls. Calls follow the shape of the dose curve; as a rule, active = well fitted inhibition curve with a large enough effect; inconclusive = small, poorly fitted or top-dose-only effect; inactive = no such curve, though single readings can be large or run the other way.
Field 'call' accepts active, inactive

The following compounds have reported results that may help.
C[N+](C)(C)CC#CCN1CCCC1=O
inactive
COc1ccc2[nH]cc(CCN)c2c1
inactive
NC(N)=NOCC[C@H](N)C(=O)O
inactive
OC1CCCCC1N1CCC(c2ccccc2)CC1 (configuration not stated)
inactive
CC(C)NP(=O)(NC(C)C)OP(=O)(NC(C)C)NC(C)C
inactive

# input How was CC(C)(C)c1cc(C=C(C#N)C#N)cc(C(C)(C)C)c1O classified in this test?
# output active

# input // param item: C[N+]1(C)CCOC(O)(c2ccc(-c3ccc(C4(O)C[N+](C)(C)CCO4)cc3)cc2)C1 (configuration not stated) ; yields the recorded call
# output inactive
